Can you tell me Delta MST for the items I'm about to list?
Tested on: Plasmodium berghei
Assay: Change in mean survival time for control (average 6.2 days) versus treated mice (Mus musculus) 72 hrs after […] subcutaneous dose
Assay type: functional
Please state the figure in days; there is no need to write the unit.

IN: Delta MST lookup needed for `CCN(CC)Cc1cc(Nc2cc[n+]([O-])c3cc(Cl)ccc23)cc(-c2ccccn2)c1O` , thanks.
OUT: 9.1

IN: Delta MST lookup needed for `CC(C)(C)NCc1cc(Nc2cc[n+]([O-])c3cc(Cl)ccc23)cc(-c2ccccc2)c1O` , thanks.
OUT: 14

IN: Delta MST lookup needed for `CN(C)Cc1cc(Nc2cc[n+]([O-])c3cc(Cl)ccc23)cc(-c2ccc(Cl)cc2)c1O` , thanks.
OUT: 20.7

IN: Delta MST lookup needed for `CCN(CC)Cc1cc(Nc2cc[n+]([O-])c3cc(Cl)ccc23)cc(-c2ccncc2)c1O` , thanks.
OUT: 21.9

IN: Delta MST lookup needed for `CCN(CC)Cc1cc(Nc2cc[n+]([O-])c3cc(Cl)ccc23)cc(-c2ccc(C)cc2)c1O` , thanks.
OUT: 10.5

IN: Delta MST lookup needed for `CCCCN(CCCC)Cc1cc(Nc2cc[n+]([O-])c3cc(Cl)ccc23)cc(-c2ccc(Cl)cc2)c1O` , thanks.
OUT: 31.7

IN: Delta MST lookup needed for `CC(C)(C)NCc1cc(Nc2cc[n+]([O-])c3cc(Cl)ccc23)cc(-c2ccc(Cl)cc2)c1O` , thanks.
OUT: 13.9

IN: Delta MST lookup needed for `CCN(CC)Cc1cc(Nc2cc[n+]([O-])c3cc(Cl)ccc23)cc(-c2ccccc2F)c1O` , thanks.
OUT: 35.6

IN: Delta MST lookup needed for `CCN(CC)Cc1cc(Nc2cc[n+]([O-])c3cc(Cl)ccc23)cc(-c2cccc(F)c2)c1O` , thanks.
OUT: 14.8

---

Test system: Plasmodium berghei
Assay: Change in mean survival time for control (average 6.2 days) versus treated mice (Mus musculus) 72 hrs after […] subcutaneous dose
Type: functional
Can you tell me Delta MST for the items I'm about to list?
Please state the figure in days; there is no need to write the unit.

IN: Delta MST lookup needed for `CCN(CC)Cc1cc(Nc2ccnc3cc(Cl)ccc23)cc(-c2cccc(Cl)c2)c1O` , thanks.
OUT: 1.3

IN: Delta MST lookup needed for `Oc1c(CN2CCCC2)cc(Nc2ccnc3cc(Cl)ccc23)cc1-c1ccc(Cl)c(Cl)c1` , thanks.
OUT: -0.1

IN: Delta MST lookup needed for `Oc1c(CNC23CC4CC(CC(C4)C2)C3)cc(Nc2ccnc3cc(Cl)ccc23)cc1-c1ccc(Cl)cc1` , thanks.
OUT: -0.3

IN: Delta MST lookup needed for `CCN(CC)Cc1cc(Nc2ccnc3cc(Cl)ccc23)cc(-c2ccc(Cl)c(Cl)c2)c1O` , thanks.
OUT: -0.3

IN: Delta MST lookup needed for `CC(C)(C)NCc1cc(Nc2ccnc3cc(Cl)ccc23)cc(-c2ccc(Cl)c(Cl)c2)c1O` , thanks.
OUT: 0.1

---

System: Plasmodium berghei
Assay: Change in mean survival time for control (average 6.2 days) versus treated mice (Mus musculus) 72 hrs after […] subcutaneous dose
Type: functional
Kindly return label 1 if reported Delta MST is no lower than 5 days; return label 0 if it is lower.

IN: # check: Delta MST of `CCN(CC)Cc1cc(Nc2ccnc3cc(Cl)ccc23)cc(-c2ccncc2)c1O` is greater than or equal to 5 days
OUT: label 0

IN: # check: Delta MST of `CCN(CC)Cc1cc(Nc2ccnc3cc(Cl)ccc23)cc(-c2ccccc2)c1O` is greater than or equal to 5 days
OUT: label 0

IN: # check: Delta MST of `CC(C)(C)NCc1cc(Nc2ccnc3cc(Cl)ccc23)cc(-c2ccc(F)cc2)c1O` is greater than or equal to 5 days
OUT: label 1

IN: # check: Delta MST of `CCN(CC)Cc1cc(Nc2ccnc3cc(Cl)ccc23)cc(-c2ccccc2F)c1O` is greater than or equal to 5 days
OUT: label 0

IN: # check: Delta MST of `CCN(CC)Cc1cc(Nc2ccnc3cc(Cl)ccc23)cc(-c2cccc(C(F)(F)F)c2)c1O` is greater than or equal to 5 days
OUT: label 1

IN: # check: Delta MST of `CC(C)(C)NCc1cc(Nc2ccnc3cc(Cl)ccc23)cc(-c2ccccc2)c1O` is greater than or equal to 5 days
OUT: label 1

IN: # check: Delta MST of `CCN(CC)Cc1cc(Nc2ccnc3cc(Cl)ccc23)cc(-c2ccccc2Cl)c1O` is greater than or equal to 5 days
OUT: label 0

IN: # check: Delta MST of `CCCN(CCC)Cc1cc(Nc2ccnc3cc(Cl)ccc23)cc(-c2ccc(Cl)cc2)c1O` is greater than or equal to 5 days
OUT: label 0

IN: # check: Delta MST of `CCN(CC)Cc1cc(Nc2ccnc3cc(Cl)ccc23)cc(-c2ccc(SC)cc2)c1O` is greater than or equal to 5 days
OUT: label 0

IN: # check: Delta MST of `CCN(CC)Cc1cc(Nc2ccnc3cc(Cl)ccc23)cc(-c2cccc3ccccc23)c1O` is greater than or equal to 5 days
OUT: label 0

IN: # check: Delta MST of `CCN(CC)Cc1cc(Nc2ccnc3cc(Cl)ccc23)cc(-c2ccccc2C(F)(F)F)c1O` is greater than or equal to 5 days
OUT: label 0

IN: # check: Delta MST of `CCN(CC)Cc1cc(Nc2ccnc3cc(Cl)ccc23)cc(-c2ccc(C(F)(F)F)cc2)c1O` is greater than or equal to 5 days
OUT: label 0

IN: # check: Delta MST of CCN(CC)Cc1cc(Nc2ccnc3cc(Cl)ccc23)cc(-c2ccc(Cl)cc2)c1O [TEBAQUINE] is greater than or equal to 5 days
OUT: label 0

IN: # check: Delta MST of CC(C)(C)NCc1cc(Nc2ccnc3cc(Cl)ccc23)cc(-c2ccc(Cl)cc2)c1O [TEBUQUINE] is greater than or equal to 5 days
OUT: label 0

IN: # check: Delta MST of `CCN(CC)Cc1cc(Nc2ccnc3cc(Cl)ccc23)cc(-c2c(F)c(F)c(F)c(F)c2F)c1O` is greater than or equal to 5 days
OUT: label 1

IN: # check: Delta MST of CCC(C)NCc1cc(Nc2ccnc3cc(Cl)ccc23)cc(-c2ccc(Cl)cc2)c1O (centres undefined) is greater than or equal to 5 days
OUT: label 0

IN: # check: Delta MST of `CN(C)Cc1cc(Nc2ccnc3cc(Cl)ccc23)cc(-c2ccc(Cl)cc2)c1O` is greater than or equal to 5 days
OUT: label 1

IN: # check: Delta MST of `CCN(CC)Cc1cc(Nc2ccnc3cc(Cl)ccc23)cc(-c2cccnc2)c1O` is greater than or equal to 5 days
OUT: label 1

IN: # check: Delta MST of `CCN(CC)Cc1cc(Nc2ccnc3cc(Cl)ccc23)cc(-c2cccc(F)c2F)c1O` is greater than or equal to 5 days
OUT: label 1

---

Test system: Plasmodium berghei
Test: Change in mean survival time for control (average 6.2 days) versus treated mice (Mus musculus) after 40 mg/kg subcutaneous dose
Assay type: functional
metric_name: Delta MST (days)
Please state the figure in days; there is no need to write the unit.

IN: Delta MST lookup needed for `CCCCN(CCCC)Cc1cc(Nc2cc[n+]([O-])c3cc(Cl)ccc23)cc(-c2ccc(Cl)cc2)c1O` , thanks.
OUT: 2.2

IN: Delta MST lookup needed for `[O-][n+]1ccc(Nc2cc(CN3CCCC3)c(O)c(-c3ccc(Cl)c(Cl)c3)c2)c2ccc(Cl)cc21` , thanks.
OUT: 10.7

IN: Delta MST lookup needed for `CCN(CC)Cc1cc(Nc2cc[n+]([O-])c3cc(Cl)ccc23)cc(-c2cc(OC)ccc2OC)c1O` , thanks.
OUT: 2.6

IN: Delta MST lookup needed for `CC(C)(C)NCc1cc(Nc2cc[n+]([O-])c3cc(Cl)ccc23)cc(-c2ccc(Cl)c(Cl)c2)c1O` , thanks.
OUT: 8.9

IN: Delta MST lookup needed for `CCN(CC)Cc1cc(Nc2cc[n+]([O-])c3cc(Cl)ccc23)cc(-c2ccccn2)c1O` , thanks.
OUT: 0

IN: Delta MST lookup needed for `CCN(CC)Cc1cc(Nc2cc[n+]([O-])c3cc(Cl)ccc23)cc(-c2ccncc2)c1O` , thanks.
OUT: 5.7

IN: Delta MST lookup needed for `CCN(CC)Cc1cc(Nc2cc[n+]([O-])c3cc(Cl)ccc23)cc(-c2ccccc2OC)c1O` , thanks.
OUT: 6.9

IN: Delta MST lookup needed for `CCN(CC)Cc1cc(Nc2cc[n+]([O-])c3cc(Cl)ccc23)cc(-c2cccc3ccccc23)c1O` , thanks.
OUT: 0.4

IN: Delta MST lookup needed for `CCN(CC)Cc1cc(Nc2cc[n+]([O-])c3cc(Cl)ccc23)cc(-c2ccc(SC)cc2)c1O` , thanks.
OUT: 10.3

IN: Delta MST lookup needed for `CCN(CC)Cc1cc(Nc2cc[n+]([O-])c3cc(Cl)ccc23)cc(-c2cccc(F)c2)c1O` , thanks.
OUT: 22.8

IN: Delta MST lookup needed for `CCN(CC)Cc1cc(Nc2cc[n+]([O-])c3cc(Cl)ccc23)cc(-c2ccc(OC)c(OC)c2)c1O` , thanks.
OUT: 5.4

IN: Delta MST lookup needed for `CCN(CC)Cc1cc(Nc2cc[n+]([O-])c3cc(Cl)ccc23)cc(-c2ccccc2C(F)(F)F)c1O` , thanks.
OUT: 15.5

IN: Delta MST lookup needed for `CC(C)(C)NCc1cc(Nc2cc[n+]([O-])c3cc(Cl)ccc23)cc(-c2ccc(Cl)cc2)c1O` , thanks.
OUT: 24.9

IN: Delta MST lookup needed for `CCN(CC)Cc1cc(Nc2cc[n+]([O-])c3cc(Cl)ccc23)cc(-c2ccc(C)cc2)c1O` , thanks.
OUT: 0.5

IN: Delta MST lookup needed for `CCN(CC)Cc1cc(Nc2cc[n+]([O-])c3cc(Cl)ccc23)cc(-c2ccc(C(F)(F)F)cc2)c1O` , thanks.
OUT: 28.6

IN: Delta MST lookup needed for `CN(C)Cc1cc(Nc2cc[n+]([O-])c3cc(Cl)ccc23)cc(-c2ccc(Cl)cc2)c1O` , thanks.
OUT: 26.3

IN: Delta MST lookup needed for `CCN(CC)Cc1cc(Nc2cc[n+]([O-])c3cc(Cl)ccc23)cc(-c2ccccc2)c1O` , thanks.
OUT: 29.6

IN: Delta MST lookup needed for `CCN(CC)Cc1cc(Nc2cc[n+]([O-])c3cc(Cl)ccc23)cc(-c2ccc(Cl)cc2)c1O` , thanks.
OUT: 36.9
